// reported protein stability index per item
B1: LOXL2 (parent)
chain: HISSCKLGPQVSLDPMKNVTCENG

variants of: B1; assay: protein stability index of a GFP-peptide fusion (GPS, HEK-293T) (PSI 1-6); higher = more stable; conditions: c terminus: a fixed tail appended;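 further: lentivirally expressed fusions sorted by FACS into six bins by GFP to DsRed ratio, PSI derived from sequencing read proportions per bin multiplied by bin number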
Please state the value as a number alone, without comment.

protein stability index measured on G24D = 4.01

protein stability index measured on C5P = 4.01

protein stability index measured on S12K = 3.9
